Every entry's value here was drawn from paper PMC10397247.

Target: T1, 4H87-AA
T1 chain: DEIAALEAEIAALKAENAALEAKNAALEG
Test: two-hybrid library CCmax;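 also: natural log of median RNA to DNA barcode read ratio; higher means stronger binding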
Settings: mean of both orientations

[
  {
    "binder": "DKNAALKAKIAALKAKIAALEAENAALKG [4H3940-AA]",
    "interaction score": -0.615
  },
  {
    "binder": "DENAALEAKIAALKAEIAALEAKIAALKG [4H1350-AA]",
    "interaction score": -0.16
  },
  {
    "binder": "DEIAALKAKIAALEAKIAALKAKNAALKG [4H816-AA]",
    "interaction score": 0.567
  },
  {
    "binder": "DEIAALEAEIAALKAKNAALKAEIAALEG [4H121-AA]",
    "interaction score": 0.81
  }
]
